Taken from PubChem BioAssay (NCI).

- Test system: RPMI-8226 leukemia
- measurement.notes: NCI-60 one-dose screen, 48 h
- measurement.conditions: 10 µM unless noted
About 83,000 compounds went through this panel and 20% of them were active in at least one assay; those are over-represented in the sample as a whole. Calls of active or inactive are those of the source. The calls were made as follows: active = growth percent below 10; inactive = the rest.
Classes used: true (active), false (inactive)

molecule	assigned.category
CC[C@H]1[C@@H]2C=C[C@@H]3[C@H]4C/C=C\C(=O)NCCC[C@@H]5NC(=O)/C(=C(O)/C=C/[C@@H]4C[C@@H]3[C@H]2C[C@H]1C)C5=O	true
CC1=C2C(=C[C@@](C)(CO)[C@@H]2OC(=O)N(C)CCN(C)C(=O)OC(C)(C)C)C(=O)[C@](C)(O)C12CC2	false
C=C1C(=O)O[C@H]2[C@H]1CC/C(COC(=O)c1ccc3ccccc3c1)=C\CC[C@@]1(C)O[C@@H]21	true
COC(=O)c1oc2c(C(C)=O)c(OCCCN(C)C)ccc2c1C	false
O=[N+]([O-])c1cccc2cc(S(=O)(=O)O)ccc12	false
CCc1ccc(C2=C/C(=C/c3ccc(Cl)cc3)C(=O)N2CCc2ccc(S(N)(=O)=O)cc2)cc1	false
COc1ccc2c(c1)OC(N(C(C)=O)C(C)=O)=C(C#N)C2c1ccc(F)cc1 (stereo not given)	true
COc1ccc(-c2c(NC(=O)Nc3ccc(Cl)c(C(F)(F)F)c3)cnn2-c2ccc(S(N)(=O)=O)cc2)cc1	false
Nc1nccc2c1ccn2-c1ccc(NC(=O)Nc2cccc(C(F)(F)F)c2)cc1	false
COc1ccc(N)c(S)c1	false
S=c1[nH]nc(Cn2c3ccccc3c3ccncc32)o1	false
CCN(CC)CCC(C(=O)O)(c1ccccc1)c1ccccc1	false
CC(Cc1cccc(C(F)(F)F)c1)NCCOC(=O)c1ccccc1 (stereo not given)	false
Cc1cc(NC(=O)c2cccc(C(F)(F)F)c2)ccc1-n1ccc2c(NC(=O)c3ccccc3)nccc21	false
COc1cc(C(=O)C[n+]2ccccc2)ccc1OC(C)=O	false
COc1ccc(-c2nn(-c3ccc(NC(=O)c4ccc(Cl)c(C(F)(F)F)c4)cc3)cc2-c2ccncc2)cc1Cl	true
CCC1(C(N)=O)CC2C=CC1CC2 (stereo not given)	false
COc1cc(NC(C)CCCN2C(=O)c3ccccc3C2=O)c2nccc(C)c2c1OC (stereo not given)	false
Cc1ccc(Cn2cc(COc3ccc4c5ccnc(C)c5n(CCCc5ccccc5)c4c3)nn2)cc1	false
CC(C)(c1ccc(OCC(O)CNCc2ccco2)cc1)c1ccc(OCC(O)CNCc2ccco2)cc1 (stereo not given)	false
S=c1ssnc1-c1ccccn1	false
Clc1ccc2c(c1)nnn1c3ncccc3c(Br)c21	false
COc1cc([C@@H]2c3cc4c(cc3C(OC3O[C@@H]5COC(C)O[C@H]5[C@H](O)[C@H]3O)C3COC(=O)[C@@H]32)OCO4)cc(OC)c1O (stereo not given in full)	false
Cc1cc2nc(-c3c(N)ncc(C#N)c3-c3ccc(Cl)cc3)[nH]c2cc1C	false
COc1ccc(/C=N/C2=NNC(C)(c3ccccc3O)N2C(Cc2c[nH]c3ccccc23)C(=O)O)cc1 (stereo not given)	true
[2H]c1nc(Nc2ncc(F)c(-c3cc(F)c4nc(C)n(C(C)C)c4c3)n2)c([2H])c([2H])c1CN1CCN(CC)CC1	false
CN1CCN(Cn2nc(-c3cc(F)c(Cl)cc3Cl)n(/N=C/c3ccc(N(C)C)cc3)c2=S)CC1	false
CCOc1ccc(Cc2nccc3cc(OCC)c(OCC)cc23)cc1OCC	false
COc1ccc2c(c1)C(=O)/C(=C/c1cccc(OCC(=O)c3ccccc3)c1)O2	true
CC1OC(n2c3ccccc3c3c4c(c5c6ccccc6[nH]c5c32)C(=O)N(CCN[C@@H]2CCC[C@H]2N)C4=O)CC(O)C1O (stereo not given in full)	true
O=C(Nc1ccc(-n2ccc3c(NC(=O)c4ccccc4)ncnc32)cc1)c1cccc(C(F)(F)F)c1	false
O=c1c2ccccc2sc2c(N3CCCC3)nc3ccccc3c12	false
CCC(N)(C(=O)O)c1ccc(F)cc1 (stereo not given)	false
CN[C@@H](CCCNC(N)=NC/C=C(/C)CCC=C(C)C)C(=O)N(C)[C@@H](CCCNC(N)=NCC=C(C)C)C(=O)N[C@H](C)[C@H](OS(=O)(=O)O)c1ccc(OS(=O)(=O)O)c(COS(=O)(=O)O)c1	false
CC(Cl)(CCl)CS(=O)(=O)c1ccc(Cl)cc1 (stereo not given)	false
